PROTOCOL: Quantitative High-Throughput drug screen in 47 multiple myeloma cell lines against the NCATS MIPE library collection: Karpas620_DSMZ cell viability assay (AID 1918959); further: nearly all actives have a fitted effect of over 30% in size; further: potency means the concentration at half of the fitted maximal effect
STUDY_CONDITIONS: Karpas620 myeloma viability, CellTiter-Glo ATP luminescence, 48 h; series mostly up to 45.8 µM
Excerpt: PI: Beverly A. Mock Ph.D. Laboratory of Cancer Biology and Genetics, Center for Cancer Research, National Cancer Institute, National Institute of Health, Bethesda, Maryland […] 5; Detector; 425V; Luminescence; Viewlux PerkinElmer. […] 1. […] Briefly, the corresponding myeloma cell lines were screened in 1,536-well plates with 500 cells, 5-uL per well for inhibition of cell viability (assessed by measuring ATP levels with CellTiterGlo). […]
Records with an inconclusive call do not appear. The source made the active and inactive calls. The call rests on the fitted dose curve; in most records, active means well fitted cell-killing curve with a large enough effect; inconclusive means small, poorly fitted or top-dose-only effect, or effect the other way; inactive means no such curve, though single readings can be large or run the other way.
PROPERTY_MEASURED: Potency

Worked cases, Potency given:
COc1cc2c(Oc3ccc(-c4cnc(Nc5ccc(F)cc5)n(C)c4=O)cc3F)ccnc2cc1OCCCN1CCOCC1
2.96 µM (active)
CNC(=O)CN1CCC(Oc2cc3c(Nc4cccc(Cl)c4F)ncnc3cc2OC)CC1
0.001 µM (active)
CC(C)(C)c1cnc(CSc2cnc(NC(=O)C3CCNCC3)s2)o1
0.372 µM (active)
Cn1c2ccccc2c2c3c(c4c5ccccc5n(CCC#N)c4c21)CNC3=O
2.35 µM (active)
CC1(C)CC(=O)c2c(C(F)(F)F)nn(-c3ccc(C(N)=O)c(NC4CCC(OC(=O)CN)CC4)c3)c2C1 (stereo not drawn)
0.264 µM (active)
COC(=O)C1=C(C)NC(C)=C(C(=O)OCCN2CCN(C(c3ccccc3)c3ccccc3)CC2)C1c1cccc([N+](=O)[O-])c1 (stereo not drawn)
inactive

Attention now shifts to the item below.
INPUT: // Potency lookup, key: CC(C)CC(=O)Nc1n[nH]c2c1CN(C(=O)C1CCN(C)CC1)C2(C)C
OUTPUT: 2.64 µM (active)

====

System: KB-3-1
PROTOCOL: Cytotoxic Profiling of Annotated Libraries Using Quantitative High-Throughput Screening (AID 1296008); further: on the % scale 0 is the no-effect control and ±100 the full control effect; nearly all actives have a fitted effect of over 60% in size
STUDY_CONDITIONS: Five cell lines viability, CellTiter-Glo ATP luminescence, 48-72 h; active compounds read low
Results filed as inconclusive are left out. Activity calls are given as the source filed them. Calls follow the shape of the dose curve; as a rule, active = well fitted inhibition curve with a large enough effect; inconclusive = small, poorly fitted or top-dose-only effect; inactive = flat fitted curve, though single readings scatter.
Can you tell me max response for the items I'm about to list?

INPUT: // max response lookup, key: Cc1c(Cn2c(C)nc3c(C(=O)O)cc(N4CCOCC4)cc32)cccc1C(F)(F)F
OUTPUT: 6.95% (inactive)

INPUT: // max response lookup, key: Cn1c(CNc2ccc(C(=N)N)cc2)nc2cc(C(=O)N(CCC(=O)O)c3ccccn3)ccc21
OUTPUT: -2.52% (inactive)

INPUT: // max response lookup, key: CCNC(=O)Nc1ccc2ncc(Nc3ccc(C)cc3)nc2n1
OUTPUT: -0.0839% (inactive)

INPUT: // max response lookup, key: CC(C)(C)NC(=O)[C@H]1CN(Cc2cccnc2)CCN1C[C@@H](O)C[C@@H](Cc1ccccc1)C(=O)N[C@H]1c2ccccc2C[C@H]1O
OUTPUT: -44.5% (inactive)

INPUT: // max response lookup, key: COC(=O)C1=C(C)NC(C)=C(C(=O)OCCN2CCN(C(c3ccccc3)c3ccccc3)CC2)C1c1cccc([N+](=O)[O-])c1 (stereo not given)
OUTPUT: -4.82% (inactive)

INPUT: // max response lookup, key: Cn1c2cc(S(C)=O)sc2c2cnn(Cc3cccc(N)c3)c(=O)c21 (stereo not given)
OUTPUT: -13.5% (inactive)

INPUT: // max response lookup, key: O=C(C=Cc1c(C(=O)O)[nH]c2cc(Cl)cc(Cl)c12)Nc1ccccc1
OUTPUT: 3.7% (inactive)

INPUT: // max response lookup, key: C[C@@H]1CN(CC(=O)Nc2ccc3c(c2)Cc2cccc(-c4cc(=O)cc(N5CCOCC5)o4)c2S3)C[C@H](C)O1
OUTPUT: -19.5% (inactive)

INPUT: // max response lookup, key: NC1(Cc2ccc(Cl)cc2)CCN(c2ncnc3[nH]ccc23)CC1
OUTPUT: -6.56% (inactive)

INPUT: // max response lookup, key: Cc1nc2ccc(CN(C)c3ccc(C(=O)N[C@@H](CCC(=O)O)C(=O)O)s3)cc2c(=O)[nH]1
OUTPUT: 1.14% (inactive)

INPUT: // max response lookup, key: CC(=O)c1c(C)c2cnc(Nc3ccc(N4CCNCC4)cn3)nc2n(C2CCCC2)c1=O
OUTPUT: -7.2% (inactive)

INPUT: // max response lookup, key: COc1cccc(-c2ccc(NC(=O)C3=C(C(=O)O)CCC3)c(F)c2)c1
OUTPUT: -19.3% (inactive)

INPUT: // max response lookup, key: CN(C)CC(C)(C)CNc1nn2c(-c3ccccc3)nnc2cc1C1CCC1
OUTPUT: 9% (inactive)

INPUT: // max response lookup, key: COc1cc(C(=O)NS(=O)(=O)c2ccccc2C)ccc1Cc1cn(C)c2ccc(NC(=O)OC3CCCC3)cc12
OUTPUT: -2.66% (inactive)

INPUT: // max response lookup, key: CCN(CC)CCCCNc1ncc2cc(-c3cc(OC)cc(OC)c3)c(NC(=O)NC(C)(C)C)nc2n1
OUTPUT: -22.2% (inactive)

====

PROTOCOL: S16 Schwann cell PMP22 intronic element beta-lactamase assay (AID 624044); further: nearly all actives have a fitted effect of over 15% in size
STUDY_CONDITIONS: S16 rat Schwann cells, PMP22 element beta-lactamase FRET, 24 h; series mostly up to 38.3 µM
Results filed as inconclusive are left out. Calls of active or inactive are those of the source. Calls follow the shape of the full dose curve.
Answer with one of the outcomes given here: active, inactive

INPUT: Call for entry COc1cc(C(=O)NS(=O)(=O)c2ccccc2C)ccc1Cc1cn(C)c2ccc(NC(=O)OC3CCCC3)cc12 :
OUTPUT: inactive

INPUT: Call for entry Nc1ccn([C@@H]2O[C@H](CO)[C@H](O)C2(F)F)c(=O)n1 :
OUTPUT: active

INPUT: Call for entry C[C@H]1C[C@@H]2[C@@H]([C@@H](O)C[C@@]3(C)[C@H]2CC[C@]3(O)C(=O)CO)[C@@]2(C)C=CC(=O)C=C12 :
OUTPUT: inactive

INPUT: Call for entry O=c1[nH]c(=O)n(C2CCCO2)cc1F (stereo not given) :
OUTPUT: inactive

INPUT: Call for entry CC(C)(C)NC(=O)[C@H]1CN(Cc2cccnc2)CCN1C[C@@H](O)C[C@@H](Cc1ccccc1)C(=O)N[C@H]1c2ccccc2C[C@H]1O :
OUTPUT: inactive

====

PROTOCOL: Quantitative High-Throughput drug screen in 47 multiple myeloma cell lines against the NCATS MIPE library collection: MM1R_ATCC cell viability assay (AID 1918981); further: potency means the concentration at half of the fitted maximal effect; nearly all actives have a fitted effect of over 35% in size
STUDY_CONDITIONS: MM1R multiple myeloma cells, CellTiter-Glo viability, 48 h; series mostly up to 45.8 µM
Inconclusive results are not listed. The source made the active and inactive calls. The call rests on the fitted dose curve; in most records, active means well fitted cell-killing curve with a large enough effect; inconclusive means small, poorly fitted or top-dose-only effect, or effect the other way; inactive means no such curve, though single readings can be large or run the other way.
Can you tell me Potency for the items I'm about to list?

INPUT: // Potency lookup, key: CNC(=O)c1c(F)cccc1Nc1nc(Nc2cc3c(cc2OC)CCN3C(=O)CN(C)C)nc2[nH]ccc12
OUTPUT: 93.5 nM (active)

INPUT: // Potency lookup, key: O=C(C=Cc1cccc(S(=O)(=O)Nc2ccccc2)c1)NO
OUTPUT: 1210 nM (active)

INPUT: // Potency lookup, key: Cc1cn2c(-c3cn[nH]c3)cnc2c(Nc2ccc(C(=O)N3CCNCC3)cc2F)n1
OUTPUT: 20900 nM (active)

INPUT: // Potency lookup, key: CC(C)c1nn(-c2c(Cl)cccc2Cl)c2nc(Cc3ccc(OCCO)cc3)[nH]c(=O)c12
OUTPUT: 41.8 nM (active)

INPUT: // Potency lookup, key: CC(C)CC(=O)Nc1n[nH]c2c1CN(C(=O)C1CCN(C)CC1)C2(C)C
OUTPUT: 662 nM (active)

====

PROTOCOL: qHTS of pediatric cancer cell lines to identify multiple opportunities for drug repurposing: Confirmatory screen for SK-N-MC cells (AID 1347111);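 further: potency means the concentration at half of the fitted maximal effect; cells exposed to compound for 48 h before the readout; nearly all actives have a fitted effect of over 70% in size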
STUDY_CONDITIONS: SK-N-MC cell viability; series mostly up to 45.9 µM
Records with an inconclusive call do not appear. Active and inactive are the calls of the source. Calls come from the whole dose curve; as a rule, active = well fitted cell-killing curve with a large enough effect; inconclusive = small, poorly fitted or top-dose-only effect; inactive = no such curve, though single readings can be large or run the other way.
Can you tell me Potency for the items I'm about to list?

INPUT: // Potency lookup, key: NCC(=O)Nc1ccc(-n2nc(C(F)(F)F)cc2-c2ccc3c(ccc4ccccc43)c2)cc1
OUTPUT: 329 nM (active)

INPUT: // Potency lookup, key: Nc1ccccc1NC(=O)c1ccc(CNC(=O)OCc2cccnc2)cc1
OUTPUT: 302 nM (active)

INPUT: // Potency lookup, key: Cc1cn2c(-c3cn[nH]c3)cnc2c(Nc2ccc(C(=O)N3CCNCC3)cc2F)n1
OUTPUT: 26100 nM (active)

INPUT: // Potency lookup, key: Nc1cc(C(F)(F)F)c(-c2cc(N3CCOCC3)nc(N3CCOCC3)n2)cn1
OUTPUT: 5220 nM (active)

INPUT: // Potency lookup, key: O=C(Cc1ccc(-c2ccc(OCCN3CCOCC3)cc2)cn1)NCc1ccccc1
OUTPUT: 147 nM (active)

INPUT: // Potency lookup, key: O=C(C=Cc1cccc(S(=O)(=O)Nc2ccccc2)c1)NO
OUTPUT: 1510 nM (active)

INPUT: // Potency lookup, key: COc1cc2c(Oc3ccc(NC(=O)C4(C(=O)Nc5ccc(F)cc5)CC4)cc3F)ccnc2cc1OCCCN1CCOCC1
OUTPUT: 3690 nM (active)

INPUT: // Potency lookup, key: C=CC(=O)N1CCC[C@@H](n2nc(-c3ccc(Oc4ccccc4)cc3)c3c(N)ncnc32)C1
OUTPUT: 5850 nM (active)

INPUT: // Potency lookup, key: CC(C)(C)OC(=O)Nc1ccc(-c2cc(C(=O)NCCCCCCC(=O)NO)no2)cc1
OUTPUT: 32.9 nM (active)

INPUT: // Potency lookup, key: Cc1cc(Nc2cc(NC(=O)c3c(Cl)cccc3Cl)ccn2)nc(N)n1
OUTPUT: 657 nM (active)

Data provenance is PubChem BioAssay (NCATS).
